Tested on: Spodoptera litura
Assay: Insecticidal effect for Spodoptera litura by immersion treatment of host crop root (Test Example 4)
Assay type: in vivo
Conditions: 25 ppm; soybean root immersion 5 days; second-instar larvae of Spodoptera litura; fifth day after
endpoint name: rate of dead pests (%)
Please state the value followed by its unit.

>  <compound>
CS(=O)(=O)N1CN(C(=O)c2c(F)cccc2F)C(=O)N(c2ccc([S+]([O-])C(F)F)cc2F)C1 (stereo not shown) [III-154]

>  <recorded value>
100%

$$$$
>  <compound>
O=C(c1c(F)cccc1F)N1COCN(c2ccc([S+]([O-])C(F)(F)C(F)Cl)cc2)C1=O (stereo not shown) [I-11]

>  <recorded value>
100%

$$$$
>  <compound>
O=C(c1c(F)cccc1F)N1COCN(c2ccc([S+]([O-])C(F)(F)F)c(Cl)c2Cl)C1=O (stereo not shown) [I-93]

>  <recorded value>
100%

$$$$

Next item in the queue.
Consider the compound O=C(c1c(F)cccc1F)N1COCN(c2ccc([S+]([O-])C(F)(F)C(F)F)cc2)C1=O (stereo not shown) [I-20] and give its measured rate of dead pests (%).
95%

* * *

Test system: Tetranychus urticae
Experiment: Acaricidal effect for Tetranychus urticae (Test Example 5)
Format: in vivo
Conditions: 100 ppm (table); spray on kidney bean with ten female imagoes; survivors counted on second and seventh day, 25° C.
endpoint name: rate of decrease (%)
Answer in %, number only, no unit symbol.

Below are worked cases with known answers.
>  <compound>
O=C(c1c(F)cccc1F)N1CN(S(=O)(=O)C(F)(F)F)CN(c2ccc(Oc3ccc(C(F)(F)F)cc3Cl)cc2F)C1=O [III-35]

>  <recorded value>
97

$$$$
>  <compound>
COC(=O)C(=O)N1CN(C(=O)c2c(F)cccc2F)C(=O)N(c2ccc(Oc3ccc(C(F)(F)F)cc3Cl)cc2F)C1 [III-37]

>  <recorded value>
97

$$$$
>  <compound>
CONC(=O)C(=O)N1CN(C(=O)c2c(F)cccc2F)C(=O)N(c2ccc(Oc3ccc(C(F)(F)F)cc3Cl)cc2F)C1 [III-49]

>  <recorded value>
96

$$$$

Consider the compound C=CCN1CN(C(=O)c2c(F)cccc2F)C(=O)N(c2ccc(Oc3ccc(C(F)(F)F)cc3Cl)cc2F)C1 [III-24] and give its measured rate of decrease (%).
95

Consider the compound C[S+]([O-])CC(=O)N1CN(C(=O)c2c(F)cccc2F)C(=O)N(c2ccc(Oc3ccc(C(F)(F)F)cc3Cl)cc2F)C1 (stereo not shown) [III-46] and give its measured rate of decrease (%).
97

Consider the compound CN1CN(C(=O)c2c(F)cccc2F)C(=O)N(c2ccc(Oc3ccc(C(F)(F)F)cc3Cl)cc2F)C1 [III-21] and give its measured rate of decrease (%).
99

Consider the compound O=C(c1c(F)cccc1F)N1CNCN(c2ccc(Oc3ccc(C(F)(F)F)cc3Cl)cc2F)C1=O [III-27] and give its measured rate of decrease (%).
96

* * *

Test system: Tetranychus urticae
Assay: Acaricidal effect for Tetranychus urticae (Test Example 5)
Type: in vivo
Settings: 100 ppm (table); spray on kidney bean with ten female imagoes; survivors counted on second and seventh day, 25° C.
Here the recorded rate of decrease (%) is given for each entry.
Answer in %, number only, no unit symbol.

Below are worked cases with known answers.
>  <line notation>
COC(=O)SN1CN(C(=O)c2c(F)cccc2F)C(=O)N(c2ccc(Oc3ccc(C(F)(F)F)cc3Cl)cc2F)C1

>  <value unit>
%

>  <rate of decrease (%)>
99

$$$$
>  <line notation>
O=C(OCc1ccccc1)C(=O)N1CN(C(=O)c2c(F)cccc2F)C(=O)N(c2ccc(Oc3ccc(C(F)(F)F)cc3Cl)cc2F)C1

>  <value unit>
%

>  <rate of decrease (%)>
97

$$$$
>  <line notation>
O=C(O)C(=O)N1CN(C(=O)c2c(F)cccc2F)C(=O)N(c2ccc(Oc3ccc(C(F)(F)F)cc3Cl)cc2F)C1

>  <value unit>
%

>  <rate of decrease (%)>
98

$$$$
>  <line notation>
NC(=O)C(=O)N1CN(C(=O)c2c(F)cccc2F)C(=O)N(c2ccc(Oc3ccc(C(F)(F)F)cc3Cl)cc2F)C1

>  <value unit>
%

>  <rate of decrease (%)>
97

$$$$

Next item in the queue.
Consider the molecule CNC(=O)C(=O)N1CN(C(=O)c2c(F)cccc2F)C(=O)N(c2ccc(Oc3ccc(C(F)(F)F)cc3Cl)cc2F)C1 and give its measured rate of decrease (%).
98
